Values from PubChem BioAssay AID1159580

assay: chemical genetic growth profiling, strain panel (AID 1159580);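 also: tested at 20 µM; growth read once vehicle control cultures reached saturation at 30 °C; 1 = growth at the plate median or of vehicle wells; lower values mean less growth of the strain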; conditions: S. cerevisiae deletion strains, growth OD, locus YOL006C, strain TOP1, active compounds read low
Among all 5,500 compounds or so, about 2,000 (36%) were called active. Another 18% or so got no clear call; they are omitted. Some of the results follow.
# yes (1) = normalized growth below 1 (exclusive); no (0) = normalized growth at/above 1

compound	assigned_category
COc1cc(NC(=O)NS(=O)(=O)c2ccc(C)cc2)cc(C(F)(F)F)c1	no (0)
CC(=O)Nc1ccc(O)cc1	no (0)
Nc1ccc(C(=O)O)c(O)c1	no (0)
Cc1ccc(COc2ccc(C)nc2[N+](=O)[O-])cc1	yes (1)
Nc1ccc(C(=O)O)c(O)c1 (tested in a mixture with another compound)	no (0)

API: query returns whether the compound falls strictly under 1 in normalized growth. Query: `CC(=O)Nc1ccc(OC(=O)c2ccccc2O)cc1`
yes (1)

API: query returns whether the compound falls strictly under 1 in normalized growth. Query: `COc1cc2c3cc1Oc1cc(ccc1O)C[C@@H]1c4c(cc(OC)c(O)c4Oc4ccc(cc4)C[C@@H]3N(C)CC2)CC[N+]1(C)C`
no (0)

API: query returns whether the compound falls strictly under 1 in normalized growth. Query: `Cc1cc2cc3c(C)cc(=O)oc3c(C)c2o1`
yes (1)

API: query returns whether the compound falls strictly under 1 in normalized growth. Query: COc1cc([C@@H]2c3cc4c(cc3C(O[C@@H]3O[C@@H]5CO[C@@H](c6cccs6)OC5[C@H](O)[C@H]3O)C3COC(=O)[C@@H]32)OCO4)cc(OC)c1O (some centres not stated)
yes (1)

###

assay: chemical genetic growth profiling, strain panel (AID 1159580); conditions: S. cerevisiae deletion strains, growth OD, locus YLR258W, strain gsy2, active compounds read low
Among all 5,500 compounds or so, about 2,000 (36%) were called active. About 18% were inconclusive and are not listed. The list shows a part of the results.
Entries and their normalized growth
Output: the number by itself.

>>> df
                                   compound  data_value
0                         NCCc1ccc(O)c(O)c1           1
1  NS(=O)(=O)c1cc2c(cc1C(F)(F)F)NCNS2(=O)=O       0.992
2            CN(C)CCC=C1c2ccccc2CCc2ccccc21       0.972
3  CC(=O)Oc1c(-c2ccccc2)oc2c(CC=C(C)C)c3c(c(OC(C)=O)c2c1=O)C=CC(C)(C)O3        1.03
4           CN(C)CCC=C1c2ccccc2C=Cc2ccccc21       0.989

[N-]=[N+]=CC(=O)OCC(N)C(=O)O (configuration not stated) yielded normalized growth of 0.994

`NCCc1ccc(O)cc1` yielded normalized growth of 0.985

###

test: chemical genetic growth profiling, strain panel (AID 1159580); conditions: S. cerevisiae deletion strains, growth OD, locus YMR231W, strain pep5
In all, about 5,500 compounds went through this assay and about 2,000 (36%) were called active. Another 18% or so got no clear call; they are omitted. Cut-off read from the data, not from the text of the source: active = normalized growth mostly below about 0.91 (no sharp cut-off); inconclusive = no clear call, values can overlap the other calls; inactive = mostly above about 0.92. This is one part of the list.
Classes to choose from: active, inactive

compound	assigned_category
NCCc1ccc(O)c(O)c1	inactive
COc1cc([C@@H]2c3cc4c(cc3[C@H](O)[C@H]3COC(=O)[C@@H]23)OCO4)cc(OC)c1OC	inactive
CC1(C)O[C@@H]2CC3C4C[C@H](F)C5=CC(=O)C=C[C@]5(C)[C@@]4(F)[C@@H](O)C[C@]3(C)[C@]2(C(=O)CO)O1 (stereo partly specified)	inactive
CC1=C2C(=CO[C@H](C)[C@H]2C)C(=O)C(C(=O)O)=C1O	inactive
COc1cccc(-c2cc(=O)c3ccc(OC)cc3o2)c1	inactive
NC(=O)CC[C@@H](N)C(=O)O	inactive
CC(C(=O)O)[C@H]1CCC2C3CC=C4C[C@@H](O)CC[C@]4(C)C3CC[C@@]21C (stereo partly specified)	inactive
O=C(O)c1cn(-c2ccc(F)cc2)c2cc(N3CCNCC3)c(F)cc2c1=O	inactive
CC(=O)[C@H]1CCC2C3CC=C4C[C@@H](OC(=O)CCC(=O)O)CC[C@]4(C)C3CC[C@@]21C (stereo partly specified)	inactive
Cn1nnnc1SCC1=C(C(=O)O)N2C(=O)C(NC(=O)C(O)c3ccccc3)C2SC1 (stereo unspecified)	inactive

Name the outcome recorded for CC(=O)O[C@H]1C[C@H](O[C@H]2[C@@H](O)C[C@H](O[C@H]3[C@@H](O)C[C@H](O[C@H]4CC[C@@]5(C)C(CCC6C5C[C@@H](O)[C@]5(C)[C@@H](C7=CC(=O)OC7)CC[C@]65O)C4)O[C@@H]3C)O[C@@H]2C)O[C@H](C)[C@H]1O[C@@H]1O[C@H](CO)[C@@H](O)[C@H](O)[C@H]1O (stereo partly specified) in the assay.
inactive

Name the outcome recorded for CC(C)(O)[C@@H]1CC[C@](C)([C@H]2[C@@H](O)C[C@@]3(C)C4C[C@H](O[C@@H]5O[C@H](CO)[C@@H](O)[C@H](O)[C@H]5O)C5C(C)(C)[C@@H](O[C@@H]6OC[C@@H](O)[C@H](O)[C@H]6O)CC[C@@]56C[C@@]46CC[C@]23C)O1 (stereo partly specified) in the assay.
inactive

Name the outcome recorded for `CC(=O)Oc1c(-c2ccccc2)oc2c(CC=C(C)C)c3c(c(OC(C)=O)c2c1=O)C=CC(C)(C)O3` in the assay.
inactive

###

experiment: chemical genetic growth profiling, strain panel (AID 1159580);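 also: tested at 20 µM; growth read once vehicle control cultures reached saturation at 30 °C; 1 = growth at the plate median or of vehicle wells; lower values mean less growth of the strain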; conditions: S. cerevisiae deletion strains, growth OD, locus YAR019C, strain CDC15, active compounds read low
The campaign covered roughly 5,500 compounds. About 2,000 (36%) were called active. Not shown: some 18% with an inconclusive outcome. This is one part of the list.
Entries and their normalized growth
Output: the number by itself.

`O=C1Nc2ccccc2/C1=N/N=C\c1cc(Br)cc(Br)c1O` yielded normalized growth of 0.947

###

assay: chemical genetic growth profiling, strain panel (AID 1159580);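 also: tested at 20 µM; growth read once vehicle control cultures reached saturation at 30 °C; 1 = growth at the plate median or of vehicle wells; lower values mean less growth of the strain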; details: S. cerevisiae deletion strains, growth OD, locus YMR205C, strain PFK2
Screen size: about 5,500 compounds; about 2,000 (36%) were called active. Roughly 18% stayed inconclusive and do not appear here. Rule as the data show it: active = normalized growth mostly below about 0.91 (no sharp cut-off); inconclusive = no clear call, values can overlap the other calls; inactive = mostly above about 0.92. Some of the results follow.
Classes to choose from: active, inactive

Observe how each entry below is paired with its result.
molecule	assigned_category
COC(=O)C1=C(C)NC(C)=C(C(=O)OCCN(C)Cc2ccccc2)C1c1cccc([N+](=O)[O-])c1 (centres undefined)	inactive
CC(=O)O[C@@H]1CC2C(C)(C)C(=O)CC[C@]2(C)C2CC[C@@]3(C)[C@H](c4ccoc4)OC(=O)C4OC43[C@@]21C (some centres undefined)	inactive
CC(C)c1ccc2c(c1O)CC[C@H]1C3=C(CC[C@]21C)C(=O)OC3	inactive
Cn1nnnc1SCC1=C(C(=O)O)N2C(=O)C(NC(=O)C(O)c3ccccc3)C2SC1 (centres undefined)	inactive
COc1cc2c(cc1OC)-c1cc3ccc(OC)c(OC)c3c[n+]1CC2	inactive

Name the outcome recorded for `O=c1c(-c2ccc(O)cc2)coc2cc(O)cc(O)c12` in the assay.
inactive

Name the outcome recorded for `COc1ccc(-c2coc3cc(OC(C)=O)cc(OC(C)=O)c3c2=O)cc1` in the assay.
inactive

Name the outcome recorded for `CCCCCCc1ccc(O)cc1O` in the assay.
active

Name the outcome recorded for `CC(=O)Nc1ccc(O)cc1` in the assay.
inactive

Name the outcome recorded for COC(=O)C1=C(C)NC(C)=C(C(=O)OCC(C)C)C1c1ccccc1[N+](=O)[O-] (centres undefined) in the assay.
active

Name the outcome recorded for `CC(=O)Nc1ccc(OC(=O)c2ccccc2O)cc1` in the assay.
inactive

Name the outcome recorded for `ClC(Cl)=C(c1ccc(Cl)cc1)c1ccc(Cl)cc1` in the assay.
inactive

Name the outcome recorded for `Nc1ccc(C(=O)Oc2ccccc2)c(O)c1` in the assay.
active

Name the outcome recorded for `CC(=O)O.CC(=O)O.[Cd]` in the assay.
active

Name the outcome recorded for `COc1cc2c3cc1Oc1cc(ccc1O)C[C@@H]1c4c(cc(OC)c(O)c4Oc4ccc(cc4)C[C@@H]3N(C)CC2)CC[N+]1(C)C` in the assay.
inactive

###

assay: chemical genetic growth profiling, strain panel (AID 1159580);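 also: tested at 20 µM; growth read once vehicle control cultures reached saturation at 30 °C; 1 = growth at the plate median or of vehicle wells; lower values mean less growth of the strain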; conditions: S. cerevisiae deletion strains, growth OD, locus YJL164C, strain tpk1
Screen size: about 5,500 compounds; about 2,000 (36%) were called active. Inconclusive results (about 18%) are left out. Rule as the data show it: active = normalized growth mostly below about 0.91 (no sharp cut-off); inconclusive = no clear call, values can overlap the other calls; inactive = mostly above about 0.92. The list shows a part of the results.
Classes to choose from: Y (active), N (inactive)

Observe how each entry below is paired with its result.
molecule	assigned_category
O=c1c2ccccc2[se]n1-c1ccccc1	Y
O=C(O)c1cc(=O)c2ccccc2o1	N
COc1cc2c3cc1Oc1cc(ccc1O)C[C@@H]1c4c(cc(OC)c(O)c4Oc4ccc(cc4)C[C@@H]3N(C)CC2)CC[N+]1(C)C	N
CCN1CCN(c2cc3c(cc2F)c(=O)c(C(=O)O)cn3C2CC2)CC1	N
CCCCCCCCCCCCCCCC[n+]1ccccc1	Y

Name the outcome recorded for `O=c1c(-c2cc(O)c(O)c(O)c2)coc2cc(O)c(O)c(O)c12` in the assay.
N

Name the outcome recorded for `O=C(O)/C=C(\CC(=O)O)C(=O)O` in the assay.
N

Name the outcome recorded for `CC(=O)Oc1c(-c2ccccc2)oc2c(CC=C(C)C)c3c(c(OC(C)=O)c2c1=O)C=CC(C)(C)O3` in the assay.
N

Name the outcome recorded for `O=c1[nH]c2cc(Cl)c(Cl)cc2[nH]c1=O` in the assay.
N

Name the outcome recorded for C=CCc1ccccc1OCC(O)CNC(C)C (configuration not stated) in the assay.
N

Name the outcome recorded for CC(=O)CC(c1ccccc1)c1c(O)c2ccccc2oc1=O (configuration not stated) in the assay.
N

Name the outcome recorded for `ClC(Cl)=C(c1ccc(Cl)cc1)c1ccc(Cl)cc1` in the assay.
N

Name the outcome recorded for `CC1=C2C(=CO[C@H](C)[C@H]2C)C(=O)C(C(=O)O)=C1O` in the assay.
N
